Target: T1, human OT7T175 (metastin receptor) (human, UniProt Q969F8 1-398)
T1 construct: expressed on CHO cells (hOT7T175-expressed CHO cells; hOT7T175/CHO); also called hOT7T175; h0T7T175
T1 sequence (Q969F8 whole entry L364H): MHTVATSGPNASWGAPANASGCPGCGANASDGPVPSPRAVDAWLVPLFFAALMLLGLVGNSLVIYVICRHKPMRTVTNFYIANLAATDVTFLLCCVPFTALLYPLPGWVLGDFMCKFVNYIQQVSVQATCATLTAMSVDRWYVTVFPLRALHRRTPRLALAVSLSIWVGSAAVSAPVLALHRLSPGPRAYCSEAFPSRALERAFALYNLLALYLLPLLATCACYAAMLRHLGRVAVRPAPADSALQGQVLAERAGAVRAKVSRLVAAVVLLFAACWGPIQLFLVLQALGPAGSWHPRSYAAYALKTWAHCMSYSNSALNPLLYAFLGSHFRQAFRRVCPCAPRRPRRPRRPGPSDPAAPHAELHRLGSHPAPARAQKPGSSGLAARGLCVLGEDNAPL
Assay: FMAT competition with Cy-5-labeled metastin (40-54), hOT7T175-expressed CHO cells
Numbered stars: 1 amine (or outer) side, 2 acyl side, 3 side chain; on linkers, the order of the positions; unused ones are H or OH. Square brackets hold non-standard residues; d marks the D form. Ends that are not written are not given here. Ala(2-Qui) = 2-quinolylalanine, O=C([C@H](Cc1ccc2ccccc2n1)N[*:1])[*:2]
observation-type: IC50
Write down the value, and be sure its unit follows.

What IC50 value was documented for this binder, YNWNSFGLR[Ala(2-Qui)]-NH2 (N-terminus assumed; SMILES CC(C)C[C@H](NC(=O)CNC(=O)[C@H](Cc1ccccc1)NC(=O)[C@H](CO)NC(=O)[C@H](CC(N)=O)NC(=O)[C@H](Cc1c[nH]c2ccccc12)NC(=O)[C@H](CC(N)=O)NC(=O)[C@@H](N)Cc1ccc(O)cc1)C(=O)N[C@@H](CCCNC(=N)N)C(=O)N[C@@H](Cc1ccc2ccccc2n1)C(N)=O) [Compound No. 201: [Ala(2-Qui)10]MS10] ?
820 nM

Source: patent US20060241051A1
